Item-by-item account of TLR4 FC
# Tested on: differentiated THP1 macrophages (WT)
# PARTICULARS: Table S3; THP-1, 12 h
Counter-ions that a name gives are not always drawn.
READOUT_TYPE: TLR4 FC

# COMPOUND, SYSTEM_UNDER_TEST, RESULT
measured = [
    ("COC(=O)/C=C/C(=O)OC [DMF, dimethyl fumarate]", "differentiated THP1 macrophages (WT)", "0,84 fold"),
    ("Cc1cc2c(cc1C(CC(=O)O)c1ccc3ccc(OCC(=O)NC4CCCCCC4)cc3c1)OCO2 (stereo not drawn)", "differentiated THP1 macrophages (WT)", "1,17 fold"),
    ("COc1cc([C@@H](CC(=O)O)c2ccc(C)c(CN3C[C@@H](C)Oc4ccccc4S3(=O)=O)c2)cc2nnn(C)c12", "differentiated THP1 macrophages (WT)", "0,32 fold"),
    ("Cc1cc2c(cc1C(CC(=O)O)c1ccc3ccc(OCC(=O)NC4CCCCCC4)cc3c1)OCCO2 (stereo not drawn)", "differentiated THP1 macrophages (WT)", "1,04 fold"),
    ("C[S+]([O-])CCCCN=C=S (stereo not drawn)", "differentiated THP1 macrophages (WT)", "0,43 fold"),
    ("COC(=O)[C@]12CCC(C)(C)C[C@H]1[C@H]1C(=O)C=C3[C@@]4(C)C=C(C#N)C(=O)C(C)(C)[C@@H]4CC[C@@]3(C)[C@]1(C)CC2", "differentiated THP1 macrophages (WT)", "0,26 fold"),
]
